# conditions: in ethanol, 288.15 K
reported_property: solubility (mole fraction)

{"sample_smiles": "N#CN=C(N)N", "reported_property": "solubility (mole fraction)", "val": 0.00861}

###

# conditions: in acetone, 283.15 K

{"sample_smiles": "N#CN=C(N)N", "solubility (mole fraction)": 0.00634}

###

# conditions: in acetone, 298.15 K
reported_property: solubility (mole fraction)

{"sample_smiles": "N#CN=C(N)N", "val": 0.00754}

###

# conditions: in acetonitrile, 293.15 K

{"sample_smiles": "N#CN=C(N)N", "solubility (mole fraction)": 0.00245}

###

# conditions: in acetonitrile, 313.15 K

{"sample_smiles": "N#CN=C(N)N", "solubility (mole fraction)": 0.00364}

###

# conditions: in acetonitrile, 283.15 K

{"sample_smiles": "N#CN=C(N)N", "solubility (mole fraction)": 0.00219}

###

# conditions: in acetone, 293.15 K
reported_property: solubility (mole fraction)

{"sample_smiles": "N#CN=C(N)N", "val": 0.00677}

###

# conditions: in ethanol, 308.15 K
reported_property: solubility (mole fraction)

{"sample_smiles": "N#CN=C(N)N", "val": 0.0125}

###

# conditions: in acetonitrile, 288.15 K
reported_property: solubility (mole fraction)

{"sample_smiles": "N#CN=C(N)N", "val": 0.00226}

###

# conditions: in acetone, 288.15 K

{"sample_smiles": "N#CN=C(N)N", "solubility (mole fraction)": 0.00658}

###

# conditions: in ethanol, 318.15 K
reported_property: solubility (mole fraction)

{"sample_smiles": "N#CN=C(N)N", "val": 0.017}

###

# conditions: in acetonitrile, 303.15 K

{"sample_smiles": "N#CN=C(N)N", "solubility (mole fraction)": 0.00296}

###

# conditions: in acetone, 303.15 K
reported_property: solubility (mole fraction)

{"sample_smiles": "N#CN=C(N)N", "val": 0.00836}

###

# conditions: in acetone, 308.15 K
reported_property: solubility (mole fraction)

{"sample_smiles": "N#CN=C(N)N", "val": 0.0102}

###

# conditions: in ethanol, 313.15 K
reported_property: solubility (mole fraction)

{"sample_smiles": "N#CN=C(N)N", "val": 0.0142}

###

# conditions: in acetonitrile, 318.15 K

{"sample_smiles": "N#CN=C(N)N", "solubility (mole fraction)": 0.00447}

###

# conditions: in acetone, 323.15 K

{"sample_smiles": "N#CN=C(N)N", "solubility (mole fraction)": 0.0154}

###

# conditions: in acetonitrile, 298.15 K

{"sample_smiles": "N#CN=C(N)N", "solubility (mole fraction)": 0.00273}

###

# conditions: in ethanol, 323.15 K
reported_property: solubility (mole fraction)

{"sample_smiles": "N#CN=C(N)N", "val": 0.0206}
